Data credit: ChEMBL document CHEMBL4334446

Protocol text: Growth inhibition of human PBL cells incubated for 72 hrs by MTT assay
Type: cell-based
Applied conditions: PBL cells (peripheral blood lymphocytes)
Property: GI50 at 72 h (µM)
Please state the figure in µM; there is no need to write the unit.

Study these solved cases before continuing.
CCn1ccc2c3c(=O)cc(-c4ccccc4F)[nH]c3ccc21 = 28
CCn1ccc2c3c(=O)cc(-c4cccc(F)c4)[nH]c3ccc21 = 31.3

Now for the molecule whose GI50 at 72 h we want.
Fill blank: measured GI50 at 72 h of the molecule "O=C(c1ccccc1)n1ccc2c3c(=O)cc(-c4cccc(F)c4)[nH]c3ccc21" is ____. 45.6

---

Protocol text: Growth inhibition of human DND41 cells incubated for 72 hrs by MTT assay
Assay type: functional
Applied conditions: DND41, 72 h
Property: GI50 (nM)
Please state the figure in nM; there is no need to write the unit.

O=C(c1ccccc1)n1ccc2c3c(=O)cc(-c4cccc(F)c4)[nH]c3ccc21 = 10.2

Now for the molecule whose GI50 we want.
Fill blank: measured GI50 of the molecule "CCn1ccc2c3c(=O)cc(-c4ccc(F)cc4)[nH]c3ccc21" is ____. 477

---

System name: Tubulin (Bos taurus) (UniProt Q6B856+Q862L2+Q862F3)
Protocol text: Inhibition of [3H]colchicine binding to bovine brain tubulin at 5 uM relative to control
Property: inhibition

Study these solved cases before continuing.
CCn1ccc2c3c(=O)cc(-c4ccccc4F)[nH]c3ccc21 = 77%
O=C(c1ccccc1F)n1ccc2c3c(=O)cc(-c4ccccc4)[nH]c3ccc21 = 34%
O=C(c1ccccc1)n1ccc2c3c(=O)cc(-c4cccc(F)c4)[nH]c3ccc21 = 70%
CCn1ccc2c3c(=O)cc(-c4ccccc4)[nH]c3ccc21 = 73%
CCn1ccc2c3c(=O)cc(-c4ccc(F)cc4)[nH]c3ccc21 = 12%

What is its inhibition for Tubulin (Bos taurus) (UniProt Q6B856+Q862L2+Q862F3)? Entry: "CCn1ccc2c3c(=O)cc(-c4cccc(F)c4)[nH]c3ccc21" 83%

---

Tested on: MDA-MB-231
Protocol text: Growth inhibition of human MDA-MB-231 cells incubated for 72 hrs by MTT assay
Format: functional
Applied conditions: MDA-MB-231, 72 h
In this section we review reported GI50 values for a set of compounds.

Study these solved cases before continuing.
CCn1ccc2c3c(=O)cc(-c4ccccc4F)[nH]c3ccc21 = 0.164 µM
O=C(c1ccccc1F)n1ccc2c3c(=O)cc(-c4ccccc4)[nH]c3ccc21 = 3.03 µM
CCn1ccc2c3c(=O)cc(-c4ccc(F)cc4)[nH]c3ccc21 = 0.206 µM
O=C(Oc1cc(-c2ccccc2)nc2ccc3[nH]ccc3c12)c1ccccc1F = 5.59 µM
CCn1ccc2c3c(=O)cc(-c4cccc(F)c4)[nH]c3ccc21 = 0.069 µM

Now for the compound whose GI50 we want.
Fill blank: measured GI50 of the compound "O=C(c1ccccc1)n1ccc2c3c(=O)cc(-c4cccc(F)c4)[nH]c3ccc21" is ____. 0.454 µM

---

Protocol text: Metabolic stability in human liver microsomes assessed as half life at 10 uM incubated for 30 mins in presence of NADPH by HPLC analysis
Format: ADME, Microsome
In this section we review reported half-life at 10 µM values for a set of compounds.
Please state the figure in min; there is no need to write the unit.

CCn1ccc2c3c(=O)cc(-c4cccc(F)c4)[nH]c3ccc21 = 11.8
CCn1ccc2c3c(=O)cc(-c4ccc(F)cc4)[nH]c3ccc21 = 10.6
CCn1ccc2c3c(=O)cc(-c4ccccc4)[nH]c3ccc21 = 17.3

Fill blank: measured half-life at 10 µM of the compound "CCn1ccc2c3c(=O)cc(-c4ccccc4F)[nH]c3ccc21" is ____. 11.4
